Values were extracted from paper PMC8909127.

molecular target: T1, PARD3 PDZ3 (human, UniProt Q8TEW0 582-685); test: MST; […]; PBS tween 20 0.05%; room temperature; […]; duplicate; conditions: both partners purified
T1 construct: third PDZ domain of human PARD3, residues 582-685, numbering of the full-length human protein; […]; Labelled on amines with RED-NHS dye for MST; also called PARDD3-3; not shown: His tag, N-terminal, cleaved
T1 sequence (Q8TEW0 582-685): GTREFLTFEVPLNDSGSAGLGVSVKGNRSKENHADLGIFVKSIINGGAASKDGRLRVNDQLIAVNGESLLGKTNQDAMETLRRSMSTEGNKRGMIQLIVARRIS
pKd: −log10 of the molar value.
measured-quantity: pKd

Look up pKd: NLNSSRVLDLLV (also called P71L PBM peptide; SARS-CoV-2 P71L) [C-terminal SARS-CoV-2-E PBM P71L peptide of the beta variant]
< 3.00
